# Test system: SR leukemia
# assay.details: NCI-60 one-dose screen, 48 h (100 = growth as untreated, 0 = no growth, -100 = all killed)
# condition.details: 10 µM unless noted
This is part of a sample that, as a whole, favours compounds with a hit. Of some 83,000 tested, about 20% had one in any assay. Activity calls are given as the source filed them. How the source made its calls: active means growth percent below 10; inactive means the rest.
Exercise: state measured growth for each of the molecules provided.

Report growth for `C/C(CC(C)C)=N/NC(N)=S` 90.9% (inactive)

Report growth for `CN(C)C(=N)N=C(N)N` 133% (inactive)

Report growth for CC1NC(C)c2ccc3ccccc3c2O1 (centres undefined) 96.8% (inactive)

Report growth for `Cc1cc(Cl)nc(Nc2ccccc2)n1` 97.7% (inactive)

Report growth for O=C1c2ccccc2C(c2ccccc2)C1c1ccccc1 (centres undefined) 86.3% (inactive)

Report growth for `COc1ccc2oc3c(ccc[n+]3C)c(=O)c2c1` 119% (inactive)

Report growth for `COc1ccc2oc3cc(NCCN(C)C)ccc3c(=O)c2c1` 38.9% (inactive)

Report growth for CC(O)CCNC(c1ccccc1)C(O)c1ccccc1 (centres undefined) 105% (inactive)

Report growth for O=C1C=CC(n2cc(F)c(=O)[nH]c2=O)O1 (centres undefined) 13.1% (inactive)
